# Test system: NCI-H460 lung
# experiment summary: NCI tumour cell line growth inhibition, 48 h
Quick list: TGI per entry.
The response must be a number in µM with no trailing unit.

Cc1ccc2[nH]c3c(C)c4c(c(C)c3c2c1)CN(C)C=C4 | 12

Please find the next molecule below.
[in] What value of TGI has been recorded for this entry: CCN(CC)CC.CCOc1ccc(NC(=O)N=C=[N-])cc1.[CH-]1CCCCC1.[CH-]1CCCCC1.[CH-]1CCCCC1.[Cl-].[Sn+4]
[out] 0.575

* * *

Quick list: TGI per entry.
# System: T-47D breast
# experiment summary: NCI tumour cell line growth inhibition, 48 h

Here is how some molecules turned out for TGI.
C=CC(=O)N1C/C(=C\c2ccccc2)C(=O)/C(=C/c2ccccc2)C1 | 18.4 µM
COC(=O)[C@@]1(Cc2ccccc2)[C@H]2c3cc(C(=O)N4CCCC4)n(Cc4ccc(OC)c(OC)c4)c3C[C@H]2CN1C(=O)c1ccccc1 | 32.1 µM
O=C1/C(=C\c2ccc(F)cc2)CN(C(=O)c2ccc([N+](=O)[O-])cc2)C/C1=C\c1ccc(F)cc1 | > 100 µM
COc1cccc(C(=O)Nc2c3ccccc3nc3ccccc23)c1OC | > 100 µM
C=C(C)[C@@H]1CC[C@]2(C(N)=O)CC[C@]3(C)[C@H](CC[C@@H]4[C@@]5(C)CC[C@H](O)C(C)(C)[C@@H]5CC[C@]43C)[C@@H]12 | 26.9 µM

Please find the next molecule below.
[in] What value of TGI has been recorded for this entry: CC(C)(Br)C(Br)CCC(=CCBr)CBr (mixture of isomers)
[out] 8.53 µM

* * *

Quick list: GI50 per entry.
# Test system: CAKI-1 renal
# experiment summary: NCI tumour cell line growth inhibition, 48 h

Here is how some molecules turned out for GI50.
C[C@H](N)C(=O)N[C@@H]1[C@H]2C(=C(O)C[C@@H](O)[C@@H]2O)C(=O)O[C@]1(C)C(Cl)Cl | 0.43 µM
C/C1=C/C(=O)O[C@@H]2C[C@@H](CC[C@H](C)/C=C\C=C\CC1)O[C@@](O)([C@@H]1CSC(=O)N1CO)C2 | 0.0203 µM
CCN(CC)CCCC(C)Nc1cc(-c2ccc(C(F)(F)F)cc2)c(C#N)c2nc3ccccc3n12 (centres undefined) | 2.89 µM
O=Nc1ccc(O)c2ccccc12 | 1.63 µM
CN[C@@H](C)C(=O)N[C@H]1CN(C(=O)CC(C)C)CC[C@H]2CC[C@@H](C(=O)NC(c3ccccc3)c3ccccc3)N2C1=O | > 100 µM

[in] What value of GI50 has been recorded for this entry: C=C(C)[C@@H]1CC[C@]2(C(N)=O)CC[C@]3(C)[C@H](CC[C@@H]4[C@@]5(C)CC[C@H](O)C(C)(C)[C@@H]5CC[C@]43C)[C@@H]12
[out] 1.98 µM

[in] What value of GI50 has been recorded for this entry: COC(=O)C(Cc1cnc[nH]1)NC(=O)CNC(=O)CCCn1c(=O)c2c3ccccc3n(C)c2n2nnc(-c3ccccc3)c12 (centres undefined)
[out] > 100 µM

[in] What value of GI50 has been recorded for this entry: Cc1ncc(C(=O)Nc2ccc(CN3CCN(C)CC3)c(C(F)(F)F)c2)cc1C#Cc1cnc(N)c2cnccc12
[out] 0.167 µM

[in] What value of GI50 has been recorded for this entry: O=C(CCCCCCCn1cc(-c2cccnc2)nn1)Nc1ccccc1-c1ccccc1
[out] 1.29 µM

[in] What value of GI50 has been recorded for this entry: O=C1/C=C/[C@@H](O)[C@@H]2C[C@@H](O)C[C@H]2/C=C/CCC[C@H](CCc2ccc(C(F)(F)F)cc2)O1
[out] 0.312 µM

[in] What value of GI50 has been recorded for this entry: Cc1nc2ccccn2c1NC(=O)NNC(=S)Nc1ccc(Br)cc1
[out] 29.6 µM

[in] What value of GI50 has been recorded for this entry: COc1ccc(CCN2CCCN3C2=Nc2ccccc2S3(=O)=O)cc1
[out] 0.73 µM

[in] What value of GI50 has been recorded for this entry: O=C(N/N=C/c1ccccc1O)C(O)(c1ccccc1)c1ccccc1
[out] 2.36 µM

[in] What value of GI50 has been recorded for this entry: C[C@@H](N)C1CCC(C(=O)Nc2ccncc2)CC1 (some centres undefined)
[out] > 40.4 µM

The reported numbers originate from PubChem BioAssay (NCI).
